assay: Antiproliferative activity against human KBVIN cells after 3 days by SRB method; format: functional; conditions: 72 h
Each entry below carries its reported GI50.

Consider the reported GI50 for these compounds:
1. O=C(Nc1ccc(N2CCOCC2)cc1)c1cccc(Nc2ncc(F)c(Nc3ccc(F)cc3)n2)c1	> 10 µM
2. Fc1ccc(Nc2nc(Nc3cccc(N4CCOCC4)c3)ncc2F)cc1	> 10 µM

Query compound follows.
compound "Fc1cnc(Nc2cccc(N3CCOCC3)c2)nc1Nc1c(F)cccc1F" , GI50 observed: > 10 µM

---

test system: A549; assay: Antiproliferative activity against human A549 cells after 3 days by SRB method; assay type: functional; settings: A549, 72 h
Each entry below carries its reported GI50.
Kindly provide the numeric value in µM only, without the unit symbol.

compound "O=C(Nc1cccc(Nc2ncc(F)c(Nc3ccc(F)cc3)n2)c1)c1ccccc1" , GI50 observed: 37.8

compound "COc1ccc(N2CCN(C)CC2)cc1Nc1ncc(F)c(Nc2ccc(F)cc2)n1" , GI50 observed: 1.13

compound "CN1CC[C@H](c2c(O)cc(O)c3c(=O)cc(-c4ccccc4Cl)oc23)[C@H](O)C1" , GI50 observed: 0.14
